Target: T1, antibody raised against ETAG
T1 construct: Coated at 500 ng/well; also called E-tag antibody
Experiment: phage ELISA
For each record, write down the corresponding ETAG (OD).
Answers are plain numbers, in OD.

Illustrative cases are given below, each with its answer.
{"columns": ["Binder", "Units label", "ETAG (OD)"],
 "data": [
  ["RSYPRLCKQKGGVIGRMLPGAAAGAPVPYPDPLEPRP [DGI-2-20F-PP-B2]", "OD", 35.9],
  ["EGNWFCAVFRGFCVGDRGPEAAAGAPVPYPDPLEPRP [DGI-2-20R-3-A1]", "OD", 11.1],
  ["GWGCSVPGILCVGGHRQGGGAAAGAPVPYPDPLEPRP [DGI-2-20R-3-B11]", "OD", 16.9],
  ["VCSGGKGTWLEIPDRVRSSTAAAGAPVPYPDPLEPRP [DGI-2-20F-PP-A22]", "OD", 44.1],
  ["LSLEGGWMWDTKGGDGGSAQAAAGAPVPYPDPLEPRP [DGI-2-20R-4-F93]", "OD", 19.5]
]}

Would you mind listing ETAG (OD) for each of the following binders?
1. REFFNQASRGAWGYMFREWVEGAAAGAPVPYPDPLEPRP [DGI-2-40F-3-A1]
2. DGI-2-40F-3-C8 (peptide) peptide: YGTAGLFLRRACTMSDPGDPLGRRGYTGWGVLWDEWVTGSAAAGAPVPYPDPLEPRP
3. ERVSKCVGRGSGRSVGQFGGAAAGAPVPYPDPLEPRP [DGI-2-20F-PP-F1]
4. GLYQRGLAPRCRGERFGVRNAAAGAPVPYPDPLEPRP [DGI-2-20F-PP-C2]
5. RQRSGGRWVVDRVTRVASTSPAAAGAPVPYPDPLEPRP [DGI-2-20F-PP-B12]
6. VLQRSLWKDWVDGVMHGGGSRGVAAAGAPVPYPDPLEPRP [DGI-2-20R-3-A7]

## Output
9.9
13.6
11.1
6
1.9
13.9

Field ETAG (OD) (entry YTPASILTGFQRGYEGAGNGAAAGAPVPYPDPLEPRP [DGI-2-20R-4-G7] ) reads 11.6
